Target: ATP-dependent translocase ABCB1 (Homo sapiens) (UniProt P08183)
Sequence (P08183 whole entry, looked up): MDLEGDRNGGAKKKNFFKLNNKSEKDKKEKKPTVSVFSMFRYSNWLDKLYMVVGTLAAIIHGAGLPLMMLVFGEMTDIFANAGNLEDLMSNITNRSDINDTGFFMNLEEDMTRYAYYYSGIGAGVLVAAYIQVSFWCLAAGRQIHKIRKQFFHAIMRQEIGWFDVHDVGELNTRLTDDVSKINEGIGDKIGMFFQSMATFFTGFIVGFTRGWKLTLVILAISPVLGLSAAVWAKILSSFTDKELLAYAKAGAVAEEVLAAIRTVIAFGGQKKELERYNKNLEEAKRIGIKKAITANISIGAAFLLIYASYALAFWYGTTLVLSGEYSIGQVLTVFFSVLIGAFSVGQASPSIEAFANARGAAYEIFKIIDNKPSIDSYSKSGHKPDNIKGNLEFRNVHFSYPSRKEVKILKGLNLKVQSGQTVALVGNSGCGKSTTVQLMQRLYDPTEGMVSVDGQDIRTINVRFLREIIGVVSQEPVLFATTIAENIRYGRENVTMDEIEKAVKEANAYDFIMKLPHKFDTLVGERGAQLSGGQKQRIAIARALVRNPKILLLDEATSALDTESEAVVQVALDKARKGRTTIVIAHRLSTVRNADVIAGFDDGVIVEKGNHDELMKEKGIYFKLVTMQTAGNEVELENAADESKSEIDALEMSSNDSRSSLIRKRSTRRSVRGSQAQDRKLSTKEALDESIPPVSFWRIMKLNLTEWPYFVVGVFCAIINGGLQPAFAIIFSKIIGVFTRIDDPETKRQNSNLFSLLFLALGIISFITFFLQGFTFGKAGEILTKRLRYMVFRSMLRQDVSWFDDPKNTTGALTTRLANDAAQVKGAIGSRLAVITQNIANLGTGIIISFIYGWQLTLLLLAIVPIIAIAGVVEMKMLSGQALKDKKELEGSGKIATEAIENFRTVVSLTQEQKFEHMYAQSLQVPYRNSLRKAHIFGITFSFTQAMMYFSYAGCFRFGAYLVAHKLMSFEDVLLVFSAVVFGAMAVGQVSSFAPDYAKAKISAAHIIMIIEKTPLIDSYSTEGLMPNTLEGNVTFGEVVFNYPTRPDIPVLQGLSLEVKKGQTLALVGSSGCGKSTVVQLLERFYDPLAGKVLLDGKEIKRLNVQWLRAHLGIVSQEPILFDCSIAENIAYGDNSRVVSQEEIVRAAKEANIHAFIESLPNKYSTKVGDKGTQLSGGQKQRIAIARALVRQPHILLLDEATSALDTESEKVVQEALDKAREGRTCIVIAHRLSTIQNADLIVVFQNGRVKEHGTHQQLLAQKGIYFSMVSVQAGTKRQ
Experiment: MDR1 (ABCB1) efflux transporter inhibition, cell-based (AID 377)
Details: MDR1-expressing cells, fluorescent substrate accumulation slope; stronger effect = higher value; concentration not given here
Records with an inconclusive call do not appear.
Readout Type: fluorescence slope change (%)

[[record]]
compound = "COC1=C[C@@H]2C3=C([C@@H]2C1=O)[C@@H](NC(C)=O)CCc1cc(OC)c(OC)c(OC)c13"
target_or_test_system = "ATP-dependent translocase ABCB1 (Homo sapiens) (UniProt P08183)"
readout_type = "fluorescence slope change"
unit_symbol = "%"
test_result = 70.2

[[record]]
compound = "C=C[C@H]1CN2CC[C@H]1C[C@H]2[C@H](O)c1ccnc2ccccc12"
target_or_test_system = "ATP-dependent translocase ABCB1 (Homo sapiens) (UniProt P08183)"
readout_type = "fluorescence slope change"
unit_symbol = "%"
test_result = 71.3

[[record]]
compound = "N[C@H]1C[C@@H]1c1ccccc1"
target_or_test_system = "ATP-dependent translocase ABCB1 (Homo sapiens) (UniProt P08183)"
readout_type = "fluorescence slope change"
unit_symbol = "%"
test_result = 55

[[record]]
compound = "C[N+]1([O-])[C@@H]2CC(OC(=O)[C@H](CO)c3ccccc3)C[C@H]1[C@@H]1O[C@@H]12 (stereo not given in full)"
target_or_test_system = "ATP-dependent translocase ABCB1 (Homo sapiens) (UniProt P08183)"
readout_type = "fluorescence slope change"
unit_symbol = "%"
test_result = 76.2

[[record]]
compound = "CN1C(=O)CCS(=O)(=O)C1c1ccc(Cl)cc1 (stereo not given)"
target_or_test_system = "ATP-dependent translocase ABCB1 (Homo sapiens) (UniProt P08183)"
readout_type = "fluorescence slope change"
unit_symbol = "%"
test_result = 29.1

[[record]]
compound = "CC1=NCCc2c1[nH]c1cc(O)ccc21"
target_or_test_system = "ATP-dependent translocase ABCB1 (Homo sapiens) (UniProt P08183)"
readout_type = "fluorescence slope change"
unit_symbol = "%"
test_result = 159

[[record]]
compound = "CCOC(=O)NC1=C(N2CC2)C(=O)C(NC(=O)OCC)=C(N2CC2)C1=O"
target_or_test_system = "ATP-dependent translocase ABCB1 (Homo sapiens) (UniProt P08183)"
readout_type = "fluorescence slope change"
unit_symbol = "%"
test_result = 17.2

[[record]]
compound = "CC(C)(C)NCC(O)c1cc(Cl)c(N)c(Cl)c1 (stereo not given)"
target_or_test_system = "ATP-dependent translocase ABCB1 (Homo sapiens) (UniProt P08183)"
readout_type = "fluorescence slope change"
unit_symbol = "%"
test_result = -2.7

[[record]]
compound = "CN(C)[C@@H]1C(=O)C(C(N)=O)=C(O)[C@@]2(O)C(=O)C3=C(O)c4c(O)cccc4[C@@](C)(O)[C@H]3[C@H](O)[C@@H]12"
target_or_test_system = "ATP-dependent translocase ABCB1 (Homo sapiens) (UniProt P08183)"
readout_type = "fluorescence slope change"
unit_symbol = "%"
test_result = 60.8

[[record]]
compound = "COc1c2c(cc3c1OCO3)CCN(C)C2"
target_or_test_system = "ATP-dependent translocase ABCB1 (Homo sapiens) (UniProt P08183)"
readout_type = "fluorescence slope change"
unit_symbol = "%"
test_result = 4


###

Biological target: 6-phosphogluconate dehydrogenase, decarboxylating (Homo sapiens)
Assay: 6PGD enzyme inhibitors, primary screen, biochemical, human, recombinant enzyme, NADPH absorbance (AID 1159550)
Conditions: recombinant 6PGD, NADPH absorbance 341 nm; at 10 µM; stronger effect = higher value
Readout Type: inhibition (%)

[[record]]
compound = "NCC(CC(=O)O)c1ccc(Cl)cc1 (stereo unspecified)"
test_result = 5.14

[[record]]
compound = "O=C1c2ccccc2-c2cccc3cccc1c23"
test_result = -2.36

[[record]]
compound = "COc1nc(NC(C)C)nc(NC(C)C)n1"
test_result = -20.6

[[record]]
compound = "CO[C@@H]1C[C@@H](C[C@H]2CC[C@H](C)[C@H]([C@@H](C)C(=O)O)O2)O[C@]2(O[C@](C)([C@H]3CC[C@@](C)(C4O[C@@H](C5O[C@@](O)(CO)[C@H](C)C[C@@H]5C)C[C@@H]4C)O3)C[C@H]2C)[C@@H]1C (stereo partly specified)"
test_result = 10.1

[[record]]
compound = "CC(=O)OCC1=C(C(=O)O)N2C(=O)[C@@H](NC(=O)CCC[C@@H](N)C(=O)O)[C@H]2SC1"
test_result = -2.43

[[record]]
compound = "CC1=CC(=O)C2=C(C)C[C@H](O)[C@H]3[C@H](C)C(=O)O[C@@H]3C12 (stereo partly specified)"
test_result = -7.67

[[record]]
compound = "CCC(C)[C@H]1O[C@]2(C=C[C@@H]1C)C[C@@H]1C[C@@H](C/C=C(\\C)[C@@H](OC3C[C@H](OC)C(O[C@H]4C[C@H](OC)[C@@H](O)[C@H](C)O4)[C@H](C)O3)[C@@H](C)/C=C/C=C3\\CO[C@@H]4[C@H](O)C(C)=C[C@@H](C(=O)O1)[C@]34O)O2 (stereo partly specified)"
test_result = -3.19

[[record]]
compound = "CCCCCC[C@H]1C(=O)O[C@H](C)[C@H](NC(=O)c2cccc(NC=O)c2O)C(=O)O[C@@H](C)[C@@H]1OC(=O)CC(C)C"
test_result = 3.85

[[record]]
compound = "COc1cc([C@@H]2c3cc4c(cc3[C@H](OC(C)=O)[C@H]3COC(=O)[C@H]23)OCO4)cc(OC)c1OC"
test_result = -6.91

[[record]]
compound = "CNC(=O)Oc1cccc2c1OC(C)(C)C2"
test_result = -14.7

[[record]]
compound = "CCOP(=S)(OCC)Oc1ccc2c(C)c(Cl)c(=O)oc2c1"
test_result = 6.24

[[record]]
compound = "C[C@]12CC[C@H]3[C@@H](CCC4=CC(=O)CC[C@@]43C)[C@@H]1CC[C@@H]2O"
test_result = 16.5

[[record]]
compound = "COC(=O)/C(C)=C\\CC12OC(C)(C)C3CC(C=C4C(=O)c5c(OC)c6c(c(CC=C(C)C)c5OC431)OC(C)(CCC=C(C)C)C=C6)C2=O (stereo unspecified)"
test_result = -0.84

[[record]]
compound = "COC(=O)COc1ccc(Cl)cc1Cl"
test_result = -25.1

[[record]]
compound = "CC[C@@]1(O)C[C@H](O)c2c(cc3c(c2O)C(=O)c2c(O)ccc(O)c2C3=O)[C@H]1C(=O)OC"
test_result = 10.8

[[record]]
compound = "CCS(=O)CCSP(=O)(OC)OC (stereo unspecified)"
test_result = 1.58

[[record]]
compound = "COc1cc([C@@H]2c3cc4c(c(O)c3C[C@H]3COC(=O)[C@@H]32)OCO4)cc(OC)c1OC"
test_result = -17.8

[[record]]
compound = "COc1cc2c(cc1OC)[C@@H]1C(=O)c3ccc(O)c(CC=C(C)C)c3O[C@@H]1CO2"
test_result = -10.7

[[record]]
compound = "CSc1nc(NC(C)C)nc(NC(C)C)n1"
test_result = -9.01

[[record]]
compound = "CC(C)(C)NCC(O)c1ccccc1Cl (stereo unspecified)"
test_result = 14

[[record]]
compound = "COc1cc2c(cc1OC)[C@@H]1C(=O)c3ccc4oc(C(C)C)cc4c3O[C@@H]1CO2"
test_result = 4.17

[[record]]
compound = "C=CCc1ccc2c(c1)OCO2"
test_result = 7.49

[[record]]
compound = "C=C[C@H]1CN2CC[C@H]1C[C@H]2[C@H](O)c1ccnc2ccccc12"
test_result = 5.53

[[record]]
compound = "CNC(=O)O/N=C/C(C)(C)SC"
test_result = -1.92

[[record]]
compound = "OCC(O)Cc1ccc2c(c1)OCO2 (stereo unspecified)"
test_result = 11.1

[[record]]
compound = "CNc1ccc(C(=O)CC(O)CCC(C)C2OC(=O)CC(O)CC(=O)CC(O)CC(O)CC(O)CC(O)CC3(O)CC(O)C(C(=O)OC)C(CC(O[C@@H]4O[C@H](C)[C@@H](O)[C@H](N)[C@@H]4O)/C=C/C=C/C=C/C=C/C=C/C=C/C=C/C2C)O3)cc1 (stereo partly specified)"
test_result = 2.08

